Assign T/C to each entry below.
Test system: L1210 leukemia ip in BDF1 mice, survival T/C
ASSAY_NOTES: NCI In Vivo Anticancer Drug Screen. Data for tumor model L1210 Leukemia (intraperitoneal) in B6D2F1 (BDF1) mice
RUN_CONDITIONS: endpoint: mean survival time; dose: 100.0 mg/kg/injection; schedule: Q01DX009 (ip); vehicle: saline sonified; higher = longer survival
Toxic doses and inconclusive results are not listed.

So, "Cc1c(O)ccc2c1CCCC2" ? Its T/C was 92 % of control

Looking up O=C1c2ccccc2CC1(Br)C(Br)c1ccccc1 (centres undefined) , I see its T/C listed as 99 % of control

For this compound ( "COc1cc([N+](=O)[O-])ccc1N" ), measured T/C is 116 % of control

Recorded result, COc1ccc2c(c1C)CCC1(COC(C)=O)CC(C)(O)C(O)CC21 (centres undefined) , T/C: 96 % of control
